- Test system: PIK3CD;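 note: KINOMEscan kinase panel screen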
- STATED_CONDITIONS: concentration: 1 μM, replicates: in singlicate; n = 1
Please respond with reported %Inh for every item in the list.
Report only the number, with the unit % understood.

Query: Quote PIK3CD %Inh for entry CC(C)c1cc(-c2ccc3c(N)n[nH]c3c2)nc(N)n1 [GSK2250882] .
Result: 0

Query: Quote PIK3CD %Inh for entry COC(=O)c1cccc(NC(=O)NC2CCN(c3ccnc(Nc4ccc(F)cc4)n3)C2)c1 (centres unmarked) [GSK1379725] .
Result: 0

Query: Quote PIK3CD %Inh for entry Nc1ncnc2occ(-c3ccc4c(c3)CCN4C(=O)Cc3cc(F)ccc3F)c12 [GSK2645446] .
Result: 0

Query: Quote PIK3CD %Inh for entry O=C(Nc1n[nH]c2cc(-c3ccsc3)ccc12)C1CC1 [SB-732932] .
Result: 0

Query: Quote PIK3CD %Inh for entry Cc1c(Cn2c(C)c(C)n3c(=O)cc(N4CCOCC4)nc23)cccc1C(F)(F)F [GSK2328680] .
Result: 80

All values here come from paper PMC5540273.
